Where these numbers come from: ChEMBL document CHEMBL2150867

This listing pairs compounds with measured CL.
molecular target: Cytochrome P450 3A4 (Homo sapiens, UniProt P08684); assay: Intrinsic clearance assessed as CYP3A4-mediated clearance; assay type: ADME; settings: recombinant enzyme
Sequence (P08684 whole entry): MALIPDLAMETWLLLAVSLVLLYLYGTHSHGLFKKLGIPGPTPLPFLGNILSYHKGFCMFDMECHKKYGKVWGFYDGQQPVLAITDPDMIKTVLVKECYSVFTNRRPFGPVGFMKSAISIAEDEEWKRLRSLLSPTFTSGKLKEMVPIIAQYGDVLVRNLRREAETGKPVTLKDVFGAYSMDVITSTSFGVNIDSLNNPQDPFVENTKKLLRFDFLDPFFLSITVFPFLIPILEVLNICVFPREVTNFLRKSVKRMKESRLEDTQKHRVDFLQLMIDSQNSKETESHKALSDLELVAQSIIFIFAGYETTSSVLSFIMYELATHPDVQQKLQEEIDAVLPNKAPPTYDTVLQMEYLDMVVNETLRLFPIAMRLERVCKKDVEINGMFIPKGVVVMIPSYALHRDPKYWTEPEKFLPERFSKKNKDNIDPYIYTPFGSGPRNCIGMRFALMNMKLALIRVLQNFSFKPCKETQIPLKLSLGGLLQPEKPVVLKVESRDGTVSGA
Give the number; µM⁻¹ min⁻¹ is assumed, so skip it.

Example cases with answers are listed next.
CN(C)c1ccc(NC(=O)c2cc(-c3ccncc3)nc3ccccc23)cc1 | 12.7
CN(C)c1ccc(NC(=O)c2cc(-c3cnccn3)nc3ccccc23)cc1 | 2.8

Exam item: Look up CL for this compound: Cc1ccc(NC(=O)c2cc(-c3cnccn3)nc3ccccc23)cc1
Marked response: 3.3

Exam item: Look up CL for this compound: O=C(Nc1ccccc1)c1cc(-c2ccccc2)nc2ccccc12
Marked response: 1.3

Exam item: Look up CL for this compound: Cc1ccc(NC(=O)c2cc(-c3ccccn3)nc3ccccc23)cc1
Marked response: 2.9

Exam item: Look up CL for this compound: O=C(Nc1ccccc1)c1cc(-c2ccncn2)nc2ccccc12
Marked response: 3.2

###

target: UniProt P08684; assay: Intrinsic clearance assessed as CYP3A4-mediated clearance; assay type: ADME; details: recombinant enzyme
This listing pairs compounds with measured log10(CL).
On a log10 scale: recorded CL, unit µM⁻¹ min⁻¹.

COc1ccc(NC(=O)c2cc(-c3ccncn3)nc3ccccc23)cc1 | 0.52
O=C(Nc1ccccc1)c1cc(-c2ccncc2)nc2ccccc12 | 1.08
O=C(Nc1ccccc1)c1cc(-c2cnccn2)nc2ccccc12 | 0.40
O=C(Nc1ccccc1)c1cc(-c2ccccn2)nc2ccccc12 | 0.11

Exam item: Look up log10(CL) for this compound: CN(C)c1ccc(NC(=O)c2cc(-c3ccccc3)nc3ccccc23)cc1
Marked response: 0.98

Exam item: Look up log10(CL) for this compound: COc1ccc(NC(=O)c2cc(-c3cnccn3)nc3ccccc23)cc1
Marked response: 0.53

###

This listing pairs molecules with measured Ki.
molecular target: UniProt:P08684; experiment: Inhibition of recombinant CYP3A4 NF-14 expressed in Escherichia coli assessed as formation of 6-beta-hydroxytestosterone using testosterone as substrate after 5 mins by HPLC based UV method
Give the number; µM is assumed, so skip it.

Example cases with answers are listed next.
Cc1ccc(NC(=O)c2cc(-c3ccccc3)nc3ccccc23)cc1 | 3.97
Cc1ccc(NC(=O)c2cc(-c3ccncn3)nc3ccccc23)cc1 | 3
Cc1ccc(NC(=O)c2cc(-c3ccccn3)nc3ccccc23)cc1 | 3.9
O=C(Nc1ccccc1)c1cc(-c2ccncc2)nc2ccccc12 | 0.7
CN(C)c1ccc(NC(=O)c2cc(-c3ccccc3)nc3ccccc23)cc1 | 14.4

Kindly consider the entry below.
Exam item: Look up Ki for this molecule: CN(C)c1ccc(NC(=O)c2cc(-c3ccncc3)nc3ccccc23)cc1
Marked response: 0.8

###

biological target: Cytochrome P450 3A4 (Homo sapiens); assay: Intrinsic clearance assessed as CYP3A4-mediated clearance; assay type: ADME; conditions: recombinant enzyme
This listing pairs molecules with measured CL.
Give the number; µM⁻¹ min⁻¹ is assumed, so skip it.

Example cases with answers are listed next.
CN(C)c1ccc(NC(=O)c2cc(-c3ccncn3)nc3ccccc23)cc1 | 3.4
COc1ccc(NC(=O)c2cc(-c3ccncc3)nc3ccccc23)cc1 | 4.4
Cc1ccc(NC(=O)c2cc(-c3ccccc3)nc3ccccc23)cc1 | 3.4
Cc1ccc(NC(=O)c2cc(-c3ccncn3)nc3ccccc23)cc1 | 4
Cc1ccc(NC(=O)c2cc(-c3ccncc3)nc3ccccc23)cc1 | 9.7

Exam item: Look up CL for this molecule: CN(C)c1ccc(NC(=O)c2cc(-c3ccccn3)nc3ccccc23)cc1
Marked response: 1

Exam item: Look up CL for this molecule: COc1ccc(NC(=O)c2cc(-c3ccccn3)nc3ccccc23)cc1
Marked response: 2.2
